Reference source: patent US20230287021A1

test: In vitro rat plasma stability assay, formation of tafamidis; type: in vitro ADME; details: 37° C., 2 µM test compound
Counter-ions that a name gives are not always drawn.
Measured Quantity: Formation of tafamidis at 120 min

Here are 10 molecules together with their reported answers.
* O=C(OCc1ncco1)c1ccc2nc(-c3cc(Cl)cc(Cl)c3)oc2c1 | C (C is ≥50 to <75%)
* O=C(OCc1ccccn1)c1ccc2nc(-c3cc(Cl)cc(Cl)c3)oc2c1 | B (B is ≥25 to <50%)
* CCNC(=O)c1ccc2nc(-c3cc(Cl)cc(Cl)c3)oc2c1 | A (A is <25%)
* O=C(c1ccc2nc(-c3cc(Cl)cc(Cl)c3)oc2c1)N1CCNCC1 | A (A is <25%)
* O=C(OCCCN1CCCCC1)c1ccc2nc(-c3cc(Cl)cc(Cl)c3)oc2c1 | C (C is ≥50 to <75%)
* Cn1ccc(COC(=O)c2ccc3nc(-c4cc(Cl)cc(Cl)c4)oc3c2)n1 | A (A is <25%)
* Cn1ccnc1COC(=O)c1ccc2nc(-c3cc(Cl)cc(Cl)c3)oc2c1 | C (C is ≥50 to <75%)
* Cc1oc(=O)n(C)c1COC(=O)c1ccc2nc(-c3cc(Cl)cc(Cl)c3)oc2c1 | B (B is ≥25 to <50%)
* CC(OC(=O)c1ccc2nc(-c3cc(Cl)cc(Cl)c3)oc2c1)c1ccn(C)n1 (centres unmarked) | C (C is ≥50 to <75%)
* CCN(CC)CCOC(=O)c1ccc2nc(-c3cc(Cl)cc(Cl)c3)oc2c1 [Compound 35, hydrochloride] | C (C is ≥50 to <75%)

Provide Formation of tafamidis at 120 min for all items below, preserving their order.
1. CCN(C)CCCOC(=O)c1ccc2nc(-c3cc(Cl)cc(Cl)c3)oc2c1 [Compound 48, hydrochloride]
2. O=C(OC1CCn2cncc21)c1ccc2nc(-c3cc(Cl)cc(Cl)c3)oc2c1 (centres unmarked)
3. CN1CCN(CCOC(=O)c2ccc3nc(-c4cc(Cl)cc(Cl)c4)oc3c2)CC1
4. O=C(OCC1CCCO1)c1ccc2nc(-c3cc(Cl)cc(Cl)c3)oc2c1 (centres unmarked)

1. B (B is ≥25 to <50%)
2. D (D is ≥75%)
3. B (B is ≥25 to <50%)
4. D (D is ≥75%)
